- testedOn: T1, Recombinant hIL-21-Fc (AcroBiosystems) (human, UniProt Q9HBE4 30-162)
- T1 construct: bought; also called rhIL-21; not shown: Fc of the bought reagent, not described
- assayOverview: SPR, Fab on captured rhIL-21-Fc
Documented koff across a set of binders
Give just the number in s⁻¹; leave the unit off.

binder	koff / s⁻¹
ZAP122m23 Fab (Fab, V domains shown, Fab) VH: QVQLQESGPGLVKPSETLSLTCTVSGGSISSDFWGWIRQPPGKGLEWIGYISSRGSTNYNPSLKRRVTISVDTSRNQFSLKLSSVTAADTAVYYCARSAGVADFDFWGQGTLVTVSS VL: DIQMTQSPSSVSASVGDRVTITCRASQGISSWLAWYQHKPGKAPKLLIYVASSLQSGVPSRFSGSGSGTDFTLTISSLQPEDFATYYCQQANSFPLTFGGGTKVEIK	3.29e-05

Consider the binder ZAP122p1 Fab (Fab, V domains shown, Fab) VH: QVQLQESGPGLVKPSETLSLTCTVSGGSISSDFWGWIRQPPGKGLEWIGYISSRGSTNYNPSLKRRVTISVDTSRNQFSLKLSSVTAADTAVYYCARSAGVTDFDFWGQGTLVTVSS VL: DIQMTQSPSSVSASVGDRVTITCRASQGISSWLAWYQHKPGKAPKLLIYVASSLQSGVPSRFSGSGSGTDFTLTISSLQPEDFATYYCQQAQSFPLTFGGGTKVEIK and give its measured koff. 1.38e-05
